- testedOn: Retinal dehydrogenase 2 (Homo sapiens) (UniProt O94788)
- assay: qHTS for Inhibitors of the Aldehyde Dehydrogenase Family (ALDH1A2) Confirmation screens (AID 2061314); note: nearly all actives have a fitted effect of over 65% in size
- assaySetup: ALDH1A2 enzyme inhibition qHTS confirmation; series mostly up to 45.9 µM
Results filed as inconclusive are left out. Calls of active or inactive are those of the source. Calls come from the whole dose curve; as a rule, active = well fitted inhibition curve with a large enough effect; inconclusive = small, poorly fitted or top-dose-only effect; inactive = no such curve, though single readings can be large or run the other way.
Labels: TRUE (active), FALSE (inactive)

>>> categorylabel("COc1ccc(CNC(=O)Nc2ncc([N+](=O)[O-])s2)cc1")
"TRUE"
>>> categorylabel("CCOc1ccc(NC(=O)C2CCN(c3cnn(Cc4ccccc4)c(=O)c3)C2)cc1 (stereo unspecified)")
"FALSE"
>>> categorylabel("N#Cc1c(O)c2c(-c3ccc(-c4ccccc4O)cc3)csc2[nH]c1=O")
"TRUE"
>>> categorylabel("O=[N+]([O-])c1ccc(S(=O)(=O)c2ccc(Cl)cc2)nc1")
"TRUE"
>>> categorylabel("COc1ccc(CN2C(=O)c3ccccc3NC2c2ccc(OC)c(COc3ccc(NC(C)=O)cc3)c2)cc1 (stereo unspecified)")
"TRUE"
>>> categorylabel("O=C(NC1CCCc2c1cnn2-c1ccc(F)cc1F)c1ccccn1 (stereo unspecified)")
"FALSE"
>>> categorylabel("COC1=C(OC)C(=O)c2ccccc2C1=O")
"TRUE"
>>> categorylabel("C=C1C(=O)OC2CC(C)=C(C(C)CCCO)C(O)C12 (stereo unspecified)")
"FALSE"
>>> categorylabel("Cc1cc(C)nc(NC(=S)N2CCN(c3ccc4ccccc4c3)CC2)c1")
"TRUE"
>>> categorylabel("NC1CCN(c2nc(-c3ccc(Br)cc3)cs2)CC1")
"FALSE"
>>> categorylabel("Cc1ccc(CNc2ncnc3ccc(-c4ccc(CO)o4)cc23)o1")
"FALSE"

====

- testedOn: Aldehyde dehydrogenase, mitochondrial (Homo sapiens) (UniProt P05091)
- assay: qHTS for Inhibitors of the Aldehyde Dehydrogenase Family (ALDH2) Primary screen (AID 2061308);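 note: plate controls were vehicle for no effect and reference inhibitor for full effect; nearly all actives have a fitted effect of over 55% in size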
- assaySetup: ALDH2 enzyme inhibition qHTS, 1536-well; series mostly up to 56 µM
Inconclusive results are not listed. Calls of active or inactive are those of the source. Calls follow the shape of the dose curve; as a rule, active = well fitted inhibition curve with a large enough effect; inconclusive = small, poorly fitted or top-dose-only effect; inactive = flat fitted curve, though single readings scatter.
metric: activity change, negative = inhibition

>>> assayvalue("O=C(c1ccccn1)c1cnn2c(-c3ccncc3)ccnc12")
"inactive"
>>> assayvalue("CCn1cc(NC(=S)Nc2cc(Cl)ccc2OC)c(C(N)=O)n1")
"inactive"
>>> assayvalue("CCC(C)/C=C(C)/C=C/C1=CC2=C(Cl)C(=O)C(C)(OC(C)=O)C(=O)C2=CN1CCCCC(N)C(=O)O (stereo unspecified)")
"inactive"
>>> assayvalue("COc1cc(Nc2nc3c(s2)CCCC3c2ccccc2)ccc1-n1cnc(C)c1 (stereo unspecified)")
"1.32% [at 11.2 µM] (inactive)"
>>> assayvalue("O=C(CCCN1CCN(c2ccc(F)cc2)CC1)NC1c2ccccc2CSc2ccccc21 (stereo unspecified)")
"inactive"
>>> assayvalue("Oc1ccc(Oc2ccccc2F)c2cccnc12")
"inactive"
>>> assayvalue("CC(=O)O[C@@H]1[C@H](O[C@@H]2OC[C@](O)(CO)[C@H]2O)[C@@H](O[C@@H]2O[C@@H](C)[C@H](O)[C@@H](O)[C@H]2O)[C@H](OC(=O)[C@]23CCC(C)(C)C[C@H]2C2=CCC4[C@@]5(C)C[C@H](O)[C@H](O[C@@H]6O[C@H](C(=O)O)[C@@H](O)[C@H](O)[C@H]6O)[C@@](C)(C(=O)O)C5CC[C@@]4(C)[C@]2(C)CC3)O[C@@H]1C (stereo partly specified)")
"inactive"
>>> assayvalue("C=C1C(=O)OC2C1C(O)CC1(C)C(O)CCC(C=O)C21 (stereo unspecified)")
"inactive"
>>> assayvalue("CC(C(O)c1ccc(O)cc1)N1CCC(Cc2ccccc2)CC1 (stereo unspecified)")
"inactive"
>>> assayvalue("C=C(CC/C=C(\\C)C(=O)O)C1(O)CC=C(C)CC1 (stereo unspecified)")
"inactive"
>>> assayvalue("COC(=O)CCc1ccc(OCC(O)CNC(C)C)cc1 (stereo unspecified)")
"inactive"
>>> assayvalue("CN1CCN(c2ccc(C(=O)Nc3n[nH]c4ccc(Cc5cc(F)cc(F)c5)cc34)c(NC3CCOCC3)c2)CC1")
"inactive"
>>> assayvalue("COc1ccc(/C=C/C(=O)O[C@H]2[C@H](O[C@H]3[C@@H]4C=CO[C@@H](O[C@@H]5O[C@H](CO)[C@@H](O)[C@H](O)[C@H]5O)[C@@H]4[C@@]4(CO)O[C@@H]34)O[C@@H](C)[C@H](O)[C@H]2OC(C)=O)cc1")
"inactive"
>>> assayvalue("C=CCc1ccc(O[C@@H]2O[C@H](CO)[C@@H](O)[C@H](O)[C@H]2O)c(O[C@@H]2O[C@H](CO)[C@@H](O)[C@H](O)[C@H]2O)c1")
"inactive"
>>> assayvalue("COc1cc(CNc2ncnc3ccc(-c4c(C)noc4C)cc23)cc(OC)c1OC")
"inactive"
>>> assayvalue("O=S(=O)(NC1CCNCC1)c1cc(S(=O)(=O)c2ccccc2)ccc1C(F)(F)F")
"inactive"

====

- assay: BET inhibitor-based combinations targeting novel dependencies in MECOM-rearranged (r) AML: UCSD-AML1 cell line (AID 2202235); note: nearly all actives have a fitted effect of over 40% in size
- assaySetup: UCSD-AML1 AML cells viability, CellTiter-Glo, 48 h; series mostly up to 46 µM
Records with an inconclusive call do not appear. Calls of active or inactive are those of the source. Calls come from the whole dose curve; as a rule, active = well fitted inhibition curve with a large enough effect; inconclusive = small, poorly fitted or top-dose-only effect; inactive = no such curve, though single readings can be large or run the other way.
Labels: active, inactive

>>> categorylabel("CNC(=O)Nc1ccc(-c2nc(N3CC4CCC(C3)O4)c3cnn(C4CCC5(CC4)OCCO5)c3n2)cc1")
"active"
>>> categorylabel("NCC(=O)Nc1ccc(-n2nc(C(F)(F)F)cc2-c2ccc3c(ccc4ccccc43)c2)cc1")
"inactive"
>>> categorylabel("CNC(=O)c1c(-c2ccc(F)cc2)oc2cc(N(CCO)S(C)(=O)=O)c(C3CC3)cc12")
"inactive"
>>> categorylabel("Cn1cc(-c2ccc(F)c(C(F)(F)F)c2)nc1C1CCN(c2ncnc3[nH]ncc23)CC1")
"inactive"
>>> categorylabel("CC(=O)OCC(=O)[C@@]12N=C(C)O[C@@H]1C[C@H]1[C@@H]3CCC4=CC(=O)C=C[C@]4(C)[C@H]3[C@@H](O)C[C@@]12C")
"inactive"
>>> categorylabel("CC(C)C[C@H](NC(=O)[C@@H](NC(=O)c1cccc(-c2ccccc2)n1)[C@@H](C)O)B(O)O")
"active"
>>> categorylabel("c1ccc(CNc2nc(NCc3ccccc3)c3ccccc3n2)cc1")
"active"
>>> categorylabel("C[C@@H](NC(=O)c1ncnc(N)c1Cl)c1ncc(C(=O)Nc2cc(C(F)(F)F)c(Cl)cn2)s1")
"active"
>>> categorylabel("CC(C)(C)c1cc(C(=O)O)c(NC(=O)Nc2ccc3[nH]ncc3c2)s1")
"inactive"
>>> categorylabel("Cc1cc(Nc2ncc3c(n2)N(C)C(=O)N(c2cc(NC(=O)c4cccc(C(F)(F)F)c4)ccc2C)C3)n(C)n1")
"active"
>>> categorylabel("CN1CCC(=C2c3ccccc3C=Cc3ccccc32)CC1")
"inactive"
>>> categorylabel("O=NN(CCCl)C(=O)NC1CCCCC1")
"inactive"
>>> categorylabel("CCCCOc1c(C(=O)c2c(F)cc(C)cc2F)cnc2n[nH]cc12")
"active"
>>> categorylabel("CCN(CC)CCNC(=O)c1c(C)[nH]c(/C=C2\\C(=O)Nc3ccc(F)cc32)c1C")
"active"
>>> categorylabel("NC(=O)c1ncn([C@@H]2O[C@H](CO)[C@@H](O)[C@H]2O)c1N")
"inactive"
>>> categorylabel("CC1(C)O[C@@H]2C[C@H]3[C@@H]4CCC5=CC(=O)C=C[C@]5(C)[C@@]4(F)[C@@H](O)C[C@]3(C)[C@]2(C(=O)CO)O1")
"inactive"
>>> categorylabel("COc1cc2ncnc(Nc3cccc(Br)c3)c2cc1OC")
"active"
>>> categorylabel("Oc1ccc2ccccc2c1SSc1c(O)ccc2ccccc12")
"active"
>>> categorylabel("CC(C)C[C@H](NC(=O)[C@@H](O)[C@H](N)Cc1ccccc1)C(=O)O")
"inactive"
>>> categorylabel("CC1(C)CCC(C)(C)c2cc(NC(=O)c3ccc(C(=O)O)cc3)ccc21")
"inactive"
>>> categorylabel("Oc1ccc(Nc2nc(-c3ccc(Cl)cc3)cs2)cc1")
"active"
>>> categorylabel("COc1cc2nccc(Oc3ccc(NC(=O)Nc4ccc(F)cc4F)c(F)c3)c2cc1OC")
"active"
>>> categorylabel("CN[C@H]1CCc2cc(OC)c(OC)c(OC)c2-c2ccc(OC)c(=O)cc21")
"active"
>>> categorylabel("COc1ccc(Cc2ccc(NC(N)=O)cc2)cc1-c1cccc(Cl)c1")
"inactive"
>>> categorylabel("Nc1nc(Nc2ccc(S(N)(=O)=O)cc2)nn1C(=O)c1c(F)cccc1F")
"active"
>>> categorylabel("C[C@]12C=CC(=O)C=C1CC[C@@H]1[C@@H]2[C@@H](O)C[C@@]2(C)[C@H]1CC[C@]2(O)C(=O)CO")
"inactive"
>>> categorylabel("Cc1ccccc1C(=O)c1ccc(Nc2ccc(Br)cc2N)cc1Cl")
"inactive"
>>> categorylabel("C[C@H](NC(=O)Cc1cc(F)cc(F)c1)C(=O)N[C@H](C(=O)OC(C)(C)C)c1ccccc1")
"inactive"
>>> categorylabel("Cc1cnc(-c2cc(N3CCN(C(=O)CCS(C)(=O)=O)CC3)ncc2Cl)c(C)c1")
"inactive"
>>> categorylabel("Nc1ccc(-c2ccc3ncc4ccc(=O)n(-c5cccc(C(F)(F)F)c5)c4c3c2)cn1")
"active"
>>> categorylabel("CS(=O)(=O)c1cccc(CNc2nc(Nc3ccc4c(c3)CCC(=O)N4)ncc2C(F)(F)F)c1")
"active"
>>> categorylabel("CCN(c1ccccc1)c1cc(NC)[n+](C)c(C)n1")
"inactive"
>>> categorylabel("COc1cc2nccc(Oc3ccc(NC(=O)Nc4cc(C)on4)c(Cl)c3)c2cc1OC")
"active"
>>> categorylabel("Cc1nc(-c2cccnc2)sc1C(=O)Nc1ccccc1-c1cn2c(CN3CCOCC3)csc2n1")
"inactive"
>>> categorylabel("CN1CCN(CCCN2c3ccccc3Sc3ccc(C(F)(F)F)cc32)CC1")
"inactive"
>>> categorylabel("O=S(=O)(O)c1ccc2cc(N=Nc3cc(S(=O)(=O)O)c4cccnc4c3O)ccc2c1")
"inactive"
>>> categorylabel("Fc1ccc(-c2nc(-c3ccccc3F)[nH]c2-c2ccncc2)cc1")
"active"
>>> categorylabel("O=C(Nc1c(Cl)cncc1Cl)c1ccc(OC(F)F)c(OCC2CC2)c1")
"inactive"
>>> categorylabel("NC(N)=NC(=O)c1nc(Cl)c(N)nc1N")
"active"
